Values from the supplement of paper PMC13380429

Items are presented alongside their recorded cell viability.
# System: Calu-3
# assay.text: cell viability relative to DMSO; higher = less toxic
# stated.conditions: 72 h; 1000 nM
attribute.measured: cell viability (%)

# compound, system.tested, unit.info, assay.result
records = [
    ("C=C(c1ccccc1OCc1cccc(Cl)c1)n1ccnc1", "Calu-3", "%", 93.1),
    ("Clc1cccc(SC2CCNCC2)n1", "Calu-3", "%", 98.3),
    ("C=CC(=O)Nc1cc2c(Nc3ccc(F)c(Cl)c3)ncnc2cc1OCCCN1CCOCC1", "Calu-3", "%", 41.2),
    ("CC(C)C(N)C(=O)O (stereo in doubt)", "Calu-3", "%", 93),
    ("CNC[C@@H]1CC[C@@H](N)[C@@H](O[C@H]2[C@H](O)[C@@H](O[C@H]3OC[C@](C)(O)[C@H](NC)[C@H]3O)[C@H](N)C[C@@H]2N)O1", "Calu-3", "%", 98),
    ("O=C(/C=C\\n1cnc(-c2cc(C(F)(F)F)cc(C(F)(F)F)c2)n1)N1CC(F)(F)C1", "Calu-3", "%", 64.1),
    ("CN1CCN(c2c(F)cc3c(=O)c(C(=O)O)cn4c3c2SCC4)CC1", "Calu-3", "%", 84.4),
    ("COC(=O)Nc1nc2cc(C(=O)c3cccs3)ccc2[nH]1", "Calu-3", "%", 65.4),
    ("c1nc2c(NC3CCCCC3)nc(Nc3ccc(N4CCOCC4)cc3)nc2[nH]1", "Calu-3", "%", 100),
    ("NCCOB(c1ccccc1)c1ccccc1", "Calu-3", "%", 105),
    ("C[C@]12CC[C@H](O)C[C@H]1CC[C@@H]1[C@@H]2CC[C@]2(C)[C@@H](C3=CC(=O)OC3)CC[C@]12O", "Calu-3", "%", 50.5),
    ("Cc1c(CC(C)(C)C(=O)O)n(Cc2ccc(Cl)cc2)c2ccc(F)cc12", "Calu-3", "%", 95.9),
    ("CC[C@]1(O)C[C@@H]2CN(CCc3c([nH]c4ccccc34)[C@@](C(=O)OC)(c3cc4c(cc3OC)N(C)[C@H]3[C@@](O)(C(=O)OC)[C@H](OC(C)=O)[C@]5(CC)C=CCN6CC[C@]43[C@@H]65)C2)C1 [Vinblastine (sulfate)]", "Calu-3", "%", 41.6),
    ("CN1Cc2c(C(=O)OC(C)(C)C)ncn2-c2ccsc2C1=O", "Calu-3", "%", 103),
    ("Nc1nc(N)c2nc(-c3ccccc3)c(N)nc2n1", "Calu-3", "%", 97.9),
    ("CCCCCCCCCCOc1cc2c(O)c(C(=O)OCC)cnc2cc1OCC [decoquinate]", "Calu-3", "%", 98.2),
    ("CC(=O)NCCC(=O)N[C@@H](Cc1c[nH]cn1)C(=O)O", "Calu-3", "%", 101),
    ("CNC(=O)c1cc(COc2nnc(Nc3ccc(Cl)cc3)c3ccoc23)ccn1", "Calu-3", "%", 96.6),
    ("CC(=O)N1CC[N+](C)(C)CC1", "Calu-3", "%", 102),
    ("O=C(O)C[CH2][Ge](=[O])[O][Ge](=[O])[CH2]CC(=O)O", "Calu-3", "%", 99.2),
    ("CCOC(=O)C1=C(N)Oc2ccc(Br)cc2C1C(C#N)C(=O)OCC (stereo unspecified)", "Calu-3", "%", 98.2),
]
